Biological target: T1, ADI-67447
T1 construct: anti-CD3 antibody made in CHO cells, captured by anti-human Fc
T1 sequence (VH, as listed by the source limits assumed, chain 1 of 2): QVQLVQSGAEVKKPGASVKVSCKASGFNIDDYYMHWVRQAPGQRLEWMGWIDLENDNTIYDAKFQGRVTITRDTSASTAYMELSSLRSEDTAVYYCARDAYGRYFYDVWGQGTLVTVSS
T1 sequence (VL, as listed by the source limits assumed, chain 2 of 2): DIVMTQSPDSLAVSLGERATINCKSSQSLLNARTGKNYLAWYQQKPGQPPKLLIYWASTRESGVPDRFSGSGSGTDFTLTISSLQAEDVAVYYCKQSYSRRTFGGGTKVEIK
Assay: SPR Carterra avidity, yeast anti-ID
Can you tell me pKd for the items I'm about to list?
One number for each entry, as −log10 of the molar value.

Solved entries:
| BINDER | pKd |
| --- | --- |
| ADI-34132 (antibody, V domains shown, anti-ID IgG) VH: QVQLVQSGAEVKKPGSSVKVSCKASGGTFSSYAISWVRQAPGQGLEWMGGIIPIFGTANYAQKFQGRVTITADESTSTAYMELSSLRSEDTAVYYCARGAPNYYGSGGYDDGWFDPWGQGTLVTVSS VL: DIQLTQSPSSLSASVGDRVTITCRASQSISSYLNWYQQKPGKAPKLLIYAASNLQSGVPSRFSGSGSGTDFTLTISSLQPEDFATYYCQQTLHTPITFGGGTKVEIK | 9.25 |
| ADI-30242 (antibody, V domains shown, anti-ID IgG) VH: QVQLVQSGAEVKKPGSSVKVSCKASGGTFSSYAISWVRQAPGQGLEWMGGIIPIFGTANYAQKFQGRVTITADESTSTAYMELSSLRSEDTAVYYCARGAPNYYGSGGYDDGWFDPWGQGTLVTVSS VL: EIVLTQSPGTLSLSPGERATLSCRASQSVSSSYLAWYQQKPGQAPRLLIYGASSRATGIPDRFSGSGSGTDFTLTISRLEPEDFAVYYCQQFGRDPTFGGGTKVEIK | 8.08 |

Now consider a different binder.
For reference, reported pKd for ADI-34137 (antibody, V domains shown, anti-ID IgG) VH: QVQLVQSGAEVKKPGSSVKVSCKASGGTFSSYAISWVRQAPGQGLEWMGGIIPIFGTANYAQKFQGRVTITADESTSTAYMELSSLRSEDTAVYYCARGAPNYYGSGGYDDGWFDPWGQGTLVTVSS VL: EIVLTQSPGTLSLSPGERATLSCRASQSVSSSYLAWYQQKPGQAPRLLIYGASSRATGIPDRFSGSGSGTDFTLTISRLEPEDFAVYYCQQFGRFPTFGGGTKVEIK stands at 9.66
